target: T1, his-tagged cTfR1 (Acro Biosystems p/n TFR-C524a) (cynomolgus monkey, UniProt H9EXL1 89-760 (rhesus entry)); assay: SPR, Biacore X100, His-tagged TfR1 captured by anti-His
T1 construct: Bought reagent of the SPR assay
T1 sequence (chain, as listed by the source): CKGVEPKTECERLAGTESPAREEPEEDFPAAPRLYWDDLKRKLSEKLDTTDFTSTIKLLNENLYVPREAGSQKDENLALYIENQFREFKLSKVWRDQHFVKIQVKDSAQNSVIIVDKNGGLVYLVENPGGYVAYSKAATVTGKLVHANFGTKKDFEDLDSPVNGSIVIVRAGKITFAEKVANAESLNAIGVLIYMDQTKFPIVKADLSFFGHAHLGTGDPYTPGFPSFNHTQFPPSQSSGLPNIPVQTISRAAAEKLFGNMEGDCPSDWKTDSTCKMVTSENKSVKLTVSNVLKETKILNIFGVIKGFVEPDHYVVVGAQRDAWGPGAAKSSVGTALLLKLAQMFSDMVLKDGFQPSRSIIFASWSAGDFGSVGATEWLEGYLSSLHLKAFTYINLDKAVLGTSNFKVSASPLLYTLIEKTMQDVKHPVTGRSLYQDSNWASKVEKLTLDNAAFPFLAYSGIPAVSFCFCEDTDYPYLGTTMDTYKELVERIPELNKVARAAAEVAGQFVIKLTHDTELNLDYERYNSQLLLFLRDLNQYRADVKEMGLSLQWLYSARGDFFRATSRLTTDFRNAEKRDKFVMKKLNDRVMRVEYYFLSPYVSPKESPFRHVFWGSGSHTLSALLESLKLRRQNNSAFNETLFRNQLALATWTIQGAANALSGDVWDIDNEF
endpoint: koff (s⁻¹)
Provide the reading as a plain figure in s⁻¹.

Here is how some binders turned out for koff.
| binder | val |
| --- | --- |
| Fab0002 (Fab, V domains shown) VH: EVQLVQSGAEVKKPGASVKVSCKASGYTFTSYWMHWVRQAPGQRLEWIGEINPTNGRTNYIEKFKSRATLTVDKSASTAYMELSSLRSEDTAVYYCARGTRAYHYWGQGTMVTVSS VL: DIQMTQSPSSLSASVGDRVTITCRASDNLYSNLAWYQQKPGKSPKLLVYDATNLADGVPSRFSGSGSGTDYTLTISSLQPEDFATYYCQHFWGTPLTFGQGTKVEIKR | 0.0155 |
| Fab0068 (Fab, V domains shown) VH: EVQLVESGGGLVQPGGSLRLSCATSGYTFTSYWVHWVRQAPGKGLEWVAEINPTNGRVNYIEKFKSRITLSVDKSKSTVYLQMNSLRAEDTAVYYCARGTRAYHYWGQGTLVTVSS VL: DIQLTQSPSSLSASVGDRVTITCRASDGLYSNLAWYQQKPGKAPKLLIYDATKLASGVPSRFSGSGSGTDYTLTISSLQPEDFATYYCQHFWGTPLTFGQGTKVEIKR | 0.00366 |
| Fab0073 (Fab, V domains shown) VH: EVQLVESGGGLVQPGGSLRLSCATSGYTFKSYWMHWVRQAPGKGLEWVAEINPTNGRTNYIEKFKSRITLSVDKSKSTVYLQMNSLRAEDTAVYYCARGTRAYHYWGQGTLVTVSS VL: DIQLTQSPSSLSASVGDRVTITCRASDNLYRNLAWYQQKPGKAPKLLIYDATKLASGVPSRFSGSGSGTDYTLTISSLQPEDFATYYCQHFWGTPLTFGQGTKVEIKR | 0.00677 |
| Fab0063 (Fab, V domains shown) VH: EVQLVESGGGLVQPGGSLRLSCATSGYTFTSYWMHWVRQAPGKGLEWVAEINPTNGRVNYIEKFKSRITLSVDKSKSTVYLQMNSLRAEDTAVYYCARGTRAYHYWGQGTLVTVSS VL: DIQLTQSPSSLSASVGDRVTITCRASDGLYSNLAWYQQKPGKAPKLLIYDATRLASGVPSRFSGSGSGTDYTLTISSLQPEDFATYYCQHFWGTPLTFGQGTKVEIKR | 0.00446 |

Now consider the entry below.
Noted for Fab0071 (Fab, V domains shown) VH: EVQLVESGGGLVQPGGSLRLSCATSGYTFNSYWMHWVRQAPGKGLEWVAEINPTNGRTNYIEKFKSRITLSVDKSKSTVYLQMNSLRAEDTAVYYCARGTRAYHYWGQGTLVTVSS VL: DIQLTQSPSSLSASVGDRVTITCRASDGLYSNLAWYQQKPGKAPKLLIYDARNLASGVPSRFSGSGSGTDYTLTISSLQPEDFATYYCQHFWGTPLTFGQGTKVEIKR : its koff reads 0.0112

This collection of values is drawn from patent US20260191981A1.
